# protocolNotes: chemical genetic growth profiling, strain panel (AID 1159580);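 also: tested at 20 µM; growth read once vehicle control cultures reached saturation at 30 °C; 1 = growth at the plate median or of vehicle wells; lower values mean less growth of the strain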
# experimentalContext: S. cerevisiae deletion strains, growth OD, locus YDL074C, strain BRE1
Screen size: about 5,500 compounds; about 2,000 (36%) were called active. Not shown: some 18% with an inconclusive outcome. Rule as the data show it: active = normalized growth mostly below about 0.91 (no sharp cut-off); inconclusive = no clear call, values can overlap the other calls; inactive = mostly above about 0.92. Some of the results follow.
Outcomes: true (1) (active), false (0) (inactive)

CC[C@@]1(O)C(=O)OCc2c1cc1n(c2=O)Cc2cc3ccccc3nc2-1 | true (1)
NCCCCN | false (0)
C[C@@H]1CC[C@@]23CCC4(C)[C@@](C=CC5[C@@]6(C)CC[C@H](O)C(C)(C)C6CC[C@]54C)(OC2=O)C3[C@H]1C (stereo partly drawn) | false (0)
NCC(O)CC(=O)O (stereo not drawn) | false (0)
CC1(C)Oc2ccc3ccc(=O)oc3c2CC1O (stereo not drawn) | false (0)
CC[C@@]1(O)C(=O)OCc2c1cc1n(c2=O)Cc2cc3cc(O)ccc3nc2-1 | false (0)
Oc1ccc2c3c1OC1[C@@H](O)CC[C@@]4(O)[C@@H](C2)N(CC2CCC2)CC[C@]314 (stereo partly drawn) | false (0)
CC(=O)N1CCN(c2ccc(OCC3CO[C@](Cn4ccnc4)(c4ccc(Cl)cc4Cl)O3)cc2)CC1 (stereo partly drawn) | true (1)
COC(=O)NC(=S)Nc1ccccc1NC(=S)NC(=O)OC | false (0)
Cc1c(OCC(F)(F)F)ccnc1CS(=O)c1nc2ccccc2[nH]1 (stereo not drawn) | false (0)
CO[C@@H]1C[C@H](O[C@H]2CC[C@]3(C)C4CC[C@]5(C)[C@@H](C6=CC(=O)OC6)CC[C@]5(O)[C@@H]4CC[C@]3(O)C2)O[C@H](C)[C@@H]1O (stereo partly drawn) | false (0)
COc1cc(C(=O)N2CCOCC2)cc(OC)c1OC | false (0)
CC1(C)C(=O)CC[C@@]2(C)C1C[C@@H](O)[C@@]1(C)C3=CC(=O)O[C@@H](c4ccoc4)[C@]3(C)CCC21 (stereo partly drawn) | false (0)

---

Entries and their normalized growth
# protocolNotes: chemical genetic growth profiling, strain panel (AID 1159580);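 also: tested at 20 µM; growth read once vehicle control cultures reached saturation at 30 °C; 1 = growth at the plate median or of vehicle wells; lower values mean less growth of the strain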
# experimentalContext: S. cerevisiae deletion strains, growth OD, locus YJL095W, strain BCK1 (second series), stronger effect = lower value
In all, about 5,500 compounds went through this assay and about 2,000 (36%) were called active. Inconclusive results (about 18%) are left out. The list shows a part of the results.
readoutName: normalized growth

O=C(CCCN1CCN(c2ccccn2)CC1)c1ccc(F)cc1 | 0.968
Cc1ncc(CO)c(CO)c1O | 1.02
CC(=O)N1CCN(c2ccc(OCC3CO[C@](Cn4ccnc4)(c4ccc(Cl)cc4Cl)O3)cc2)CC1 (stereo not given in full) | 0.0703
CCC(=O)O[C@]1(C(=O)CCl)[C@@H](C)CC2C3CCC4=CC(=O)C=C[C@]4(C)[C@@]3(F)[C@@H](O)C[C@@]21C (stereo not given in full) | 1.03
CC1(C)O[C@@H]2CC3C4C[C@H](F)C5=CC(=O)CC[C@]5(C)C4[C@@H](O)C[C@]3(C)[C@]2(C(=O)CO)O1 (stereo not given in full) | 1.01
CCC(=O)OCC(=O)C1(OC(=O)CC)C(C)CC2C3CCC4=CC(=O)C=CC4(C)C3(Cl)C(O)CC21C (stereo not given) | 0.982
CCCc1nc(C)c2c(=O)[nH]c(-c3cc(S(=O)(=O)N4CCN(CC)CC4)ccc3OCC)nn12 | 0.974
CCC(=O)OCC(=O)[C@@]1(OC(=O)CC)[C@@H](C)CC2C3CCC4=CC(=O)C=C[C@]4(C)C3(F)[C@@H](O)C[C@@]21C (stereo not given in full) | 1
COC(=O)N/N=C\c1c[n+]([O-])c2ccccc2[n+]1[O-] | 0.973
COC(=O)C[C@H]1C(C)(C)[C@@H](O)[C@@H]2CC3=C4CC(O)O[C@@H](c5ccoc5)[C@]4(C)CCC3[C@@]1(C)C2=O (stereo not given in full) | 1.02
